The compounds listed here are annotated with their pIC50.
- system.tested: AAK1 (Homo sapiens, UniProt Q2M2I8)
- Construct: NP_055726.2
- Sequence (Q2M2I8 1-863 isoform Q2M2I8-2): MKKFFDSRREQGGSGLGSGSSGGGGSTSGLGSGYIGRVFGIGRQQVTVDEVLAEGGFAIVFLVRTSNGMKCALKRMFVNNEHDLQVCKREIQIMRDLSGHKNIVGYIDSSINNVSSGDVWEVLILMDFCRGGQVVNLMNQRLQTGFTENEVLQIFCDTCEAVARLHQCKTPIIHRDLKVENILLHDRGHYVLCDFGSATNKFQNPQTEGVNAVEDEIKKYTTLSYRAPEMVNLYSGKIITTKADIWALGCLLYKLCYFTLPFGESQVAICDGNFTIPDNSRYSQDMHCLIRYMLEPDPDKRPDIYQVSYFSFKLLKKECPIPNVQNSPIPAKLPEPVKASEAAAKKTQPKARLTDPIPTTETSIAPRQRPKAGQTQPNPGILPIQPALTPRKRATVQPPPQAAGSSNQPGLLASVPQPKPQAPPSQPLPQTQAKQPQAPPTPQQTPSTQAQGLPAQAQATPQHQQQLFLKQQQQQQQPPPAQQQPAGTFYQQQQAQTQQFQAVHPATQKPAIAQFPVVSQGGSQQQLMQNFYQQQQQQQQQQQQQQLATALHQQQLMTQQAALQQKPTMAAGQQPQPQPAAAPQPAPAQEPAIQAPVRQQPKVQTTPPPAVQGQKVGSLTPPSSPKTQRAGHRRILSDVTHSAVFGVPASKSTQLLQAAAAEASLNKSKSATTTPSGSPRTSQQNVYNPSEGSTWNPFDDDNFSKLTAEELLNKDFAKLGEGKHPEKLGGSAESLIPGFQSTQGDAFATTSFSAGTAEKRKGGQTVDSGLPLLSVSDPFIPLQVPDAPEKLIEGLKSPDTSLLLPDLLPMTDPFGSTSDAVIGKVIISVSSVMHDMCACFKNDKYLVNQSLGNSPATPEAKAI
- method: P81 filter plate assay
- Type: biochemical
- applied.conditions: full-length human AAK1, Mu2 substrate, 33P-ATP
- Method: Compounds were serially diluted into a Labcyte LDV plate (Labcyte, cat#LP-0200) using a Mutiprobe (PerkinElmer) and Biomek FX (Beckman Coulter) so that the highest compound concentration was at 96 μM. […] The bottom of each filter plate was sealed followed by addition of 20 μl Microscint 40 to each well, sealing the top of the plates with Flashplate cover, and then waiting one hour until reading on the TopCount (PerkinElmer).
pIC50: −log10 of the molar value.

Completed entries (count: 4):
- smiles.data: "CC(C)(C)OC(=O)N1CCC[C@H]1CNc1ccn2ncc(-c3ccc(CN)cc3)c2n1"
  property.measured: "pIC50"
  data.value: "≥ 8.00"
- smiles.data: "COc1ncccc1-c1cnn2ccc(N3CCN(CCC(F)(F)F)CC3)nc12"
  property.measured: "pIC50"
  data.value: "≥ 6.00"
- smiles.data: "COc1ncccc1-c1cnn2ccc(N3CCN(C(=O)C4(N)CCCC4)CC3)nc12"
  property.measured: "pIC50"
  data.value: "≥ 8.00"
- smiles.data: "CC(C)OC(=O)N(C)[C@H]1CCN(c2ccn3ncc(-c4ccccn4)c3n2)C1"
  property.measured: "pIC50"
  data.value: "≥ 6.00"

API: the following record is the query input.
The recorded pIC50 for entry CC(C)C[C@H](N)C(=O)N1CCN(c2ccn3ncc(-c4ccccc4)c3n2)CC1 equals ≥ 8.00

---

- system.tested: AAK1 (Homo sapiens, UniProt Q2M2I8)
- Construct: NP_055726.2
- method: P81 filter plate assay
- Format: biochemical
- applied.conditions: full-length human AAK1, Mu2 substrate, 33P-ATP
property.measured: IC50

The compound COc1nc(C)ccc1-c1cnn2ccc(N(C)CCCN(C)C(=O)OC(C)C)nc12 on AAK1 (Homo sapiens, UniProt Q2M2I8): IC50 was ≤ 10 nM

Measured on AAK1 (Homo sapiens, UniProt Q2M2I8), COc1ncc(F)cc1-c1cnn2ccc(N3CCN(C(=O)OC(C)C)CC3)nc12 has a documented IC50 of ≤ 10 nM

IC50 on AAK1 (Homo sapiens, UniProt Q2M2I8) for CC(C)[C@H](N)C(=O)N1CCN(c2ccn3ncc(-c4cc(F)ccc4F)c3n2)CC1 is ≤ 10 nM

# lookup: Cc1ccc(-c2cnn3ccc(N4CCN(C(=O)[C@@H](N)C(C)C)CC4)nc23)c(F)c1 on AAK1 (Homo sapiens, UniProt Q2M2I8), IC50 = ≤ 10 nM

Entry CCc1ccccc1-c1cnn2ccc(NC[C@@H]3CCCN3C(=O)OC(C)(C)C)nc12 : IC50 on AAK1 (Homo sapiens, UniProt Q2M2I8) = ≤ 10 nM

---

- system.tested: AAK1 (Homo sapiens)
- Construct: NP_055726.2
- method: HEK281 cell-based assay (CBA)
- applied.conditions: HEK293F cells transfected with full length human AAK1 and AP2M1; phospho-mu2 Western blot; 3 hours incubation
property.measured: IC50

Quick note, IC50 for CC(C)[C@H](N)C(=O)N1CCN(c2ccn3ncc(-c4ccccc4)c3n2)CC1 landed at ≤ 10 nM

Record summary for CC(C)[C@H](N)C(=O)N1CCN(c2ccn3ncc(-c4cc(F)ccc4F)c3n2)CC1 : reported IC50 = ≤ 10 nM

---

- system.tested: AAK1 (Homo sapiens)
- Construct: NP_055726.2
- method: HEK281 cell-based assay (CBA)
- applied.conditions: HEK293F cells transfected with full length human AAK1 and AP2M1; phospho-mu2 Western blot; 3 hours incubation
pIC50: −log10 of the molar value.
property.measured: pIC50

Item COc1ccncc1-c1cnn2ccc(NC[C@@H]3CCCN3C(=O)OC(C)(C)C)nc12 ; assay system AAK1 (Homo sapiens); pIC50 reported as ≥ 8.00

COc1ncccc1-c1cnn2ccc(N3CCN(C(=O)OCC(F)(F)F)CC3)nc12 tested on AAK1 (Homo sapiens) gave pIC50: ≥ 8.00

The reported AAK1 (Homo sapiens) pIC50 of COCCOC(=O)N1CCN(c2ccn3ncc(-c4cc(F)cnc4OC)c3n2)CC1 is ≥ 7.00

Entry COc1ccc(F)cc1-c1cnn2ccc(N3CC[C@H](N(C)C(=O)OC(C)C)C3)nc12 , tested on AAK1 (Homo sapiens), has a reported pIC50 of ≥ 7.00

The value of pIC50 recorded for COc1ncccc1-c1cnn2ccc(N3CCN(C(=O)[C@@H](N)C(C)(C)C)CC3)nc12 when tested on AAK1 (Homo sapiens) reads ≥ 8.00

---

- system.tested: AAK1 (Homo sapiens, UniProt Q2M2I8)
- Construct: NP_055726.2
- method: P81 filter plate assay
- Assay type: biochemical
- applied.conditions: full-length human AAK1, Mu2 substrate, 33P-ATP
pIC50: −log10 of the molar value.
property.measured: pIC50

Previously resolved entries follow.
- smiles.data: "CCOC(=O)N1CCN(c2ccn3ncc(-c4cc(C)cnc4OC)c3n2)CC1"
  system.tested: "AAK1 (Homo sapiens, UniProt Q2M2I8)"
  pIC50: "≥ 8.00"
- smiles.data: "COCCOC(=O)N1CCN(c2ccn3ncc(-c4ccc(C)nc4OC)c3n2)CC1"
  system.tested: "AAK1 (Homo sapiens, UniProt Q2M2I8)"
  pIC50: "≥ 8.00"
- smiles.data: "CC(C)(C)OC(=O)N1CCC[C@H]1CNc1ccn2ncc(-c3ccccc3)c2n1"
  system.tested: "AAK1 (Homo sapiens, UniProt Q2M2I8)"
  pIC50: "≥ 8.00"

The reported pIC50 of the compound CCOc1ncccc1-c1cnn2ccc(N3CCN(C(=O)OCCOC)CC3)nc12 was ≥ 8.00

Value of pIC50 reported for the compound COC[C@H](N)C(=O)N1CCN(c2ccn3ncc(-c4cccnc4OC)c3n2)CC1 is ≥ 8.00

The reported pIC50 of the compound CC(C)OC(=O)N1CCN(c2ccn3ncc(-c4cccnc4N)c3n2)CC1 was ≥ 7.00

# compound COc1ccccc1-c1cnn2ccc(N3CCN(C(=O)OC(C)C)CC3)nc12 ; its pIC50 = ≥ 8.00

Measured pIC50, COc1ncc(F)cc1-c1cnn2ccc(N3CC[C@H](N(C)C(=O)OC(C)C)C3)nc12 : ≥ 7.00

Lookup result for COc1ncc(F)cc1-c1cnn2ccc(N3CCN(C(=O)OC(C)(C)C)CC3)nc12 ; measured pIC50: ≥ 8.00

Entry under test: [2H]C1([2H])N(C(=O)OC(C)(C)C)C([2H])([2H])C([2H])([2H])N(c2ccn3ncc(Br)c3n2)C1([2H])[2H] . Its pIC50 was ≥ 7.00

---

- system.tested: AAK1 (Homo sapiens, UniProt Q2M2I8)
- Construct: NP_055726.2
- method: P81 filter plate assay
- Type: biochemical
- applied.conditions: full-length human AAK1, Mu2 substrate, 33P-ATP
Entries annotated with measured IC50

# count of solved cases: 10
- smiles.data: "COc1ncccc1-c1cnn2ccc(-n3cnc(CO)c3)nc12"
  data.value: "≤ 100 nM"
- smiles.data: "COc1ncccc1-c1cnn2ccc(N(C)CCN(C)C(=O)[C@@H](N)CC(C)C)nc12"
  data.value: "≤ 10 nM"
- smiles.data: "COc1ncccc1-c1cnn2ccc(N3CCN(C[C@@H](N)CC(C)C)CC3)nc12"
  data.value: "≤ 100 nM"
- smiles.data: "CC(C)C[C@H](N)C(=O)N1CCN(c2ccn3ncc(F)c3n2)CC1"
  data.value: "≤ 1000 nM"
- smiles.data: "COc1ncccc1-c1cnn2ccc(N3CCN(C(=O)[C@H](N)CC(C)C)CC3)nc12"
  data.value: "≤ 100 nM"
- smiles.data: "CCCOC(=O)N1CCN(c2ccn3ncc(-c4ccc(C)nc4OC)c3n2)CC1"
  data.value: "≤ 10 nM"
- smiles.data: "COc1ccccc1-c1cnn2ccc(NC[C@@H]3CCCN3C(=O)NC(C)(C)C)nc12"
  data.value: "≤ 10 nM"
- smiles.data: "COc1c(F)cccc1-c1cnn2ccc(N3CCN(C(=O)OC(C)C)CC3)nc12"
  data.value: "≤ 100 nM"
- smiles.data: "COc1ncccc1-c1cnn2ccc(N3CCN(C(=O)[C@@H]4COCCN4)CC3)nc12"
  data.value: "≤ 10 nM"
- smiles.data: "COC[C@H](C)OC(=O)N1CCN(c2ccn3ncc(-c4cccnc4OC)c3n2)CC1"
  data.value: "≤ 10 nM"

Known value: AAK1 (Homo sapiens, UniProt Q2M2I8) IC50 of the compound CC(C)OC(=O)N1CCN(c2ccn3ncc(-c4cccc5nccn45)c3n2)CC1 equals ≤ 100 nM

IC50 of COc1ncccc1-c1cnn2ccc(OCCN(C)C(=O)OC(C)(C)C)nc12 , assay on AAK1 (Homo sapiens, UniProt Q2M2I8), is ≤ 10 nM

Kindly note: AAK1 (Homo sapiens, UniProt Q2M2I8), COc1ccc(F)cc1-c1cnn2ccc(N3CCN(C(=O)OC(C)C)CC3)nc12 , IC50 value reported: ≤ 10 nM

Recorded IC50 for COCC(COC)OC(=O)N1CCN(c2ccn3ncc(-c4cccnc4OC)c3n2)CC1 on AAK1 (Homo sapiens, UniProt Q2M2I8) was ≤ 100 nM

Entry COc1nc(C)ccc1-c1cnn2ccc(N3CCN(CC(F)(F)F)CC3)nc12 , AAK1 (Homo sapiens, UniProt Q2M2I8) data, IC50 value: ≤ 100 nM

COc1ncccc1-c1cnn2ccc(N3CCN(C(=O)O[C@@H]4CCOC4)CC3)nc12 on AAK1 (Homo sapiens, UniProt Q2M2I8) gives IC50 = ≤ 10 nM

Field IC50 (AAK1 (Homo sapiens, UniProt Q2M2I8)), entry CCOC(=O)N1CCN(c2ccn3ncc(-c4cc(F)cnc4OC)c3n2)CC1 : ≤ 10 nM

Query COc1ncccc1-c1cnn2ccc(NCCOC(C)(C)C)nc12 on AAK1 (Homo sapiens, UniProt Q2M2I8); IC50 returned: ≤ 10 nM

Value (IC50, AAK1 (Homo sapiens, UniProt Q2M2I8)) for record CC(C)[C@H](N)C(=O)N1CCN(c2ccn3ncc(-c4ccccc4F)c3n2)CC1 = ≤ 10 nM

COc1ncccc1-c1cnn2ccc(N(C)C[C@@H]3CCCN3C(=O)OC(C)C)nc12 on AAK1 (Homo sapiens, UniProt Q2M2I8) gives IC50 = ≤ 10 nM

The measured IC50 that COc1cc(C)ccc1-c1cnn2ccc(N3CCN(C(=O)OC(C)C)CC3)nc12 showed for AAK1 (Homo sapiens, UniProt Q2M2I8) is ≤ 10 nM

AAK1 (Homo sapiens, UniProt Q2M2I8) assay, compound COc1ccc(F)cc1-c1cnn2ccc(N3CCN(C(=O)[C@@H](N)C(C)(C)C)CC3)nc12 , recorded IC50 = ≤ 10 nM

Readout IC50 for COc1ncc(F)cc1-c1cnn2ccc(N3CCN(C(=O)O[C@@H]4CCOC4)CC3)nc12 , test system AAK1 (Homo sapiens, UniProt Q2M2I8), was ≤ 10 nM

Value sought: IC50, system AAK1 (Homo sapiens, UniProt Q2M2I8), item CC(C)OC(=O)N1CCN(c2ccn3ncc(-c4cccn5ccnc45)c3n2)CC1 . Result: ≤ 100 nM

Entry COCCCOC(=O)N1CCN(c2ccn3ncc(-c4cccnc4OC)c3n2)CC1 : IC50 on AAK1 (Homo sapiens, UniProt Q2M2I8) = ≤ 10 nM

Form field IC50 for item COc1ncccc1-c1cnn2ccc(N3CCN(C(=O)[C@@H](N)CC(C)C)CC3)nc12 on AAK1 (Homo sapiens, UniProt Q2M2I8): ≤ 10 nM
